What relative liaison affinity (RLA), Progestogen receptor was measured for each of the following?
# TEST_SYSTEM: Progestogen receptor of rabbit uterus (Oryctolagus cuniculus, UniProt P06186)
# Construct: Their uterus were removed, weighed and homogenized at 0° C; from tissue; host or cells: 105,000 g supernatant (cytosol) of uterus from estradiol-treated impuberal rabbits
# Sequence (P06186 whole entry): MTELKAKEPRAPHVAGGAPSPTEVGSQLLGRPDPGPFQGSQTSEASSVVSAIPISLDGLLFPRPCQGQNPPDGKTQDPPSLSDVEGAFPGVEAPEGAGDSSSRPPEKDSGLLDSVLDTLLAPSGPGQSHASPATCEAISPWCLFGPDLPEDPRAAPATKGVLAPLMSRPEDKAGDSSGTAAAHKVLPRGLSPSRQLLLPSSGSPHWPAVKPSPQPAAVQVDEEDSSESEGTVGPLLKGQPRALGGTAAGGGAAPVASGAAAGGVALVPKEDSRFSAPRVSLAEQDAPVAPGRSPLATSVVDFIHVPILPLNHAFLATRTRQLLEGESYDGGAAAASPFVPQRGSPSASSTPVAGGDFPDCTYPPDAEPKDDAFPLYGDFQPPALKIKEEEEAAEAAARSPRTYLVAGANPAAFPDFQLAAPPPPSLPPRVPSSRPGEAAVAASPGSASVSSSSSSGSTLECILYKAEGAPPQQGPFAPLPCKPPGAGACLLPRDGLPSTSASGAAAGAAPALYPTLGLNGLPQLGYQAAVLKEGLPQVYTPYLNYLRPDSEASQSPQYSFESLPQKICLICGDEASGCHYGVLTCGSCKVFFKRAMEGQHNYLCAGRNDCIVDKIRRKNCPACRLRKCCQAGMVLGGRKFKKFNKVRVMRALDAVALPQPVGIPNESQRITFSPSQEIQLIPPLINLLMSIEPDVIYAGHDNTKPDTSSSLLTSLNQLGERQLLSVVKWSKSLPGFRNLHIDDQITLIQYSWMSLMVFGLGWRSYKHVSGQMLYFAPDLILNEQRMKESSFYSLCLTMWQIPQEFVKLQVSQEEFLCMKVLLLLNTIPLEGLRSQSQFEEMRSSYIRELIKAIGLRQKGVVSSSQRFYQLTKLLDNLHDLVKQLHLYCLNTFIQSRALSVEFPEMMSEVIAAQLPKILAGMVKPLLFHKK
# METHOD_DESCRIPTION: Progestogen receptor of rabbit uterus: relative liaison affinity (RLA), displacement of tritiated Product R
# Format: binding
# EXPERIMENTAL_PARAMETERS: Incubation time 24 H at 0° C.; vs tritiated Product R
Field format: numeric only.

# input For CC#C[C@]1(O)CC[C@H]2[C@@H]3CCC4=CC(=O)CC[C@]4(Sc4ccc(OC)cc4)C3=CC[C@@]21C , what is its reported relative liaison affinity (RLA), Progestogen receptor?
# output 0.5

# input // same read-out, input: CC#C[C@]1(O)CC[C@H]2[C@@H]3CCC4=CC(=O)CC[C@]4(Cc4ccccc4)C3=CC[C@@]21C
# output 0.1

# input What do we get for C=C(C)C[C@]12CCC(=O)C=C1CC[C@@H]1C2=CC[C@@]2(C)[C@H]1CC[C@@]2(O)C#CC ?
# output 0.1

# input What do you get for CC#C[C@]1(O)CC[C@H]2[C@@H]3CCC4=CC(=O)CC[C@]4(Cc4ccccc4F)C3=CC[C@@]21C ?
# output 0.1
